- Assay remarks: Selectivity index, ratio of IC50 for cytotoxicity against human NHDF cells to IC50 for cytotoxicity against human MCF7 cells
- Assay type: toxicity, cell-based
- Cond: NHDF cells and MCF7 cells, read-out: Ratio IC50
Label FALSE if selectivity ratio falls below 2; label TRUE in every other case.

Smiles	Group
Oc1ccc(Cl)cc1-c1cc(/C=C/c2ccccc2Cl)nn1-c1ccccc1	FALSE
Oc1ccccc1-c1cc(/C=C/c2cccs2)nn1-c1ccccc1	FALSE
COc1ccc(/C=C/c2cc(-c3cc(Cl)ccc3O)n(-c3ccccc3)n2)cc1	TRUE
Oc1ccc(Cl)cc1-c1cc(/C=C/c2ccc(Cl)s2)nn1-c1ccccc1	FALSE
